These data points were gathered from patent US4711886A.

Molecular target: Human Polymorphonuclear Leukocyte Elastase (Homo sapiens)
Construct: Crude extract of human polymorphonuclear leukocytes (PMN) containing elastase activity; endogenous in cells; host or cells: human polymorphonuclear leukocytes (crude extract)
Sequence (P08246 30-247 limits assumed): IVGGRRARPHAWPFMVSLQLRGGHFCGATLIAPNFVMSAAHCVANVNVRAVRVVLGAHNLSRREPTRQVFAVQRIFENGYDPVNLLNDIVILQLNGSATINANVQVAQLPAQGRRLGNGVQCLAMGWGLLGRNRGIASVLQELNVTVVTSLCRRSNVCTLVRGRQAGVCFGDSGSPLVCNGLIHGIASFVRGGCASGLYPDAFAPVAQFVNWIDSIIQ
Experiment: Inhibition of human polymorphonuclear leukocyte elastase via hydrolysis of N-t-Boc-alanyl-alanyl-prolyl-alanine-p-nitroanilide
Assay type: biochemical
Settings: Table III; penems; 50% inhibition of enzyme activity 2 minutes after zero time; crude PMN extract, Boc-AAPAN substrate, pH 7.5; read-out: IC50 (converted)
I'd be grateful if you could share measured IC50 for these entries.
Report as: number unit

Incoming: # IC50 lookup, item CCSC1=C(C(=O)OCc2ccc([N+](=O)[O-])cc2)N2C(=O)C(C(C)O)C2S1 (centres unmarked)
Outgoing: 4.87 µM

Incoming: # IC50 lookup, item CC1=C(C(=O)OCc2ccccc2)N2C(=O)C[C@H]2S1 [R1 = H, n = 0, M = CH3, B = OCH2 C6 H5, benzyl 2-methylpenem-3-carboxylate]
Outgoing: 14.5 µM

Incoming: # IC50 lookup, item CCOC1=C(C(=O)OCc2ccccc2)N2C(=O)CC2S1 (centres unmarked)
Outgoing: 6.55 µM

Incoming: # IC50 lookup, item COC1C(=O)N2C(C(=O)OCc3ccccc3)=C(COC(C)=O)SC12 (centres unmarked)
Outgoing: 11 µM

Incoming: # IC50 lookup, item CCSC1=C(C(=O)OCc2ccc([N+](=O)[O-])cc2)N2C(=O)C(C(C)OC(=O)OCc3ccccc3)C2S1 (centres unmarked)
Outgoing: 0.367 µM
